Reference source for all entries: patent US20110300156A1

Entries and their measured max inhibition follow.
- targetEntity: T1, TFECDHis (extracellular domain of tissue factor, amino acid 1-251, with C-terminal His tag) (human, UniProt P13726 33-251)
- T1 construct: range 1-251; The stated range 1-251 starts at residue 1 of NP-001984; also called extracellular domain of TF
- protocol: competition ELISA, inhibition of FVIIa (100 nM) binding to coated TFECDHis
reportedMetric: max inhibition (%)

binder="anti-TF HuMab 044 (antibody, V domains shown, Human monoclonal antibody from HuMab mice) VH: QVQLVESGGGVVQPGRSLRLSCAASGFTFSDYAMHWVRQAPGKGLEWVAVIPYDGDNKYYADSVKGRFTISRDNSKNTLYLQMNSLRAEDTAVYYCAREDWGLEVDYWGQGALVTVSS VL: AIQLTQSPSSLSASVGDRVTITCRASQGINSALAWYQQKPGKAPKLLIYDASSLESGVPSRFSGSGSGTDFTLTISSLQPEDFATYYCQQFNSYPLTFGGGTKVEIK" quantitativereadout=54
binder="anti-TF HuMab 098 (antibody, V domains shown, Human monoclonal antibody from HuMab mice; also called HuMab-TF-098; HuMab-TF-98) VH: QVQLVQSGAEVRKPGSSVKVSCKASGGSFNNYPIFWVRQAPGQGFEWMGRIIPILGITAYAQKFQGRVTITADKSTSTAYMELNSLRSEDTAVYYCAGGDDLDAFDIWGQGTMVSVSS VL: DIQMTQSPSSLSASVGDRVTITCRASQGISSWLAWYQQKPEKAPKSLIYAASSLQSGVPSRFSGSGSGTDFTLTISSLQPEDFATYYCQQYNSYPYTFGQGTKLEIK" quantitativereadout=85
